Measurement notes: Plasma and brain concentrations in 6 Hz studies (LC-MS/MS)
Assay type: in vivo, mouse
Conditions: CF-1, mouse, brain, intraperitoneal, Study 3C, analyte Levetiracetam; 300 mg/kg IP + Compound A 4 mg/kg PO; read-out: Brain
Metric name: concentration at 1 h (µM)
# value in µM; strip the unit string

q: Would you mind telling me what concentration at 1 h value was observed for CC[C@@H](C(N)=O)N1CCCC1=O [Levetiracetam, reference compound] ?
a: 1100

====

Measurement notes: Terminal plasma and brain concentrations in AC-MES studies (UHPLC-MS/MS)
Type: in vivo, mouse
Conditions: CF-1, mouse, in vivo, 5 mg/kg, Study 4E; Cenobamate 5 mg/kg single oral dose, 2 h pre-treatment; CF-1 mice; read-out: Mean Plasma
Method: Sample Collection and Preparation: Mice were anesthetized by isoflurane inhalation (according to SOP TECH-018) until they reached a surgical plane of anesthesia. […] Plasma Samples: Extraction of plasma samples was carried out by protein precipitation using acetonitrile. […] The samples were analyzed by ultra-high performance liquid chromatography electrospray ionization tandem mass spectrometry (UHPLC-ESI-MS/MS) as described in the bioanalysis procedure below. […]
Metric name: concentration at 2 h (µM)
# value in µM; strip the unit string

q: Would you mind telling me what concentration at 2 h value was observed for NC(=O)O[C@@H](Cn1ncnn1)c1ccccc1Cl [Cenobamate, reference compound] ?
a: 53.6

====

Measurement notes: Plasma and brain concentrations after MES testing (UHPLC-ESI-MS/MS);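 note: brain and plasma were sampled from mice right after the efficacy test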
Conditions: CF-1, mouse, in vivo, po, 8 mg/kg, Concentration Plasma, Compound A 8 mg/kg PO single dose, tissue collection 0.5 hr
Metric name: concentration at 0.5 h (nM)
# value in nM; strip the unit string

q: Would you mind telling me what concentration at 0.5 h value was observed for Cc1cc(N2CCc3cc(F)ccc3C2)cc(C)c1NC(=O)CC(C)(C)C [Compound A] ?
a: 710

====

Measurement notes: Plasma and brain concentrations in 6 Hz studies (LC-MS/MS)
Assay type: in vivo, mouse
Conditions: CF-1, mouse, brain, intraperitoneal, 300 mg/kg, Study 3B, Levetiracetam 300 mg/kg IP 1 h alone; read-out: Brain
Metric name: concentration at 1 h (µM)
# value in µM; strip the unit string

q: Would you mind telling me what concentration at 1 h value was observed for CC[C@@H](C(N)=O)N1CCCC1=O [Levetiracetam, reference compound] ?
a: 861

====

Measurement notes: Terminal plasma and brain concentrations in AC-MES studies (UHPLC-MS/MS)
Assay type: in vivo, mouse
Conditions: CF-1, mouse, in vivo, 10 mg/kg, Study 4D; Cenobamate 10 mg/kg single oral dose, 2 h pre-treatment; CF-1 mice; read-out: Mean Brain
Metric name: concentration at 2 h (µM)
# value in µM; strip the unit string

q: Would you mind telling me what concentration at 2 h value was observed for NC(=O)O[C@@H](Cn1ncnn1)c1ccccc1Cl [Cenobamate, reference compound] ?
a: 26.8

====

Measurement notes: Terminal plasma and brain concentrations in AC-MES studies (UHPLC-MS/MS)
Assay type: in vivo, mouse
Conditions: CF-1, mouse, in vivo, 6 mg/kg, Study 2A, Lacosamide 6 mg/kg PO, 2 h; read-out: Mean Plasma
Metric name: concentration at 2 h (µM)
# value in µM; strip the unit string

q: Would you mind telling me what concentration at 2 h value was observed for COC[C@@H](NC(C)=O)C(=O)NCc1ccccc1 [Lacosamide, reference compound] ?
a: 9.07

Values compiled from patent US20220288057A1.
